The reported measurements were obtained from ChEMBL document CHEMBL4689842.

test system: Fibroblast; experiment: Multiplex assay against human fibroblast; assay type: toxicity, cell-based; conditions: 12 h, 10 µM, compound concentration 10 uM, replicate 1
measurement name: Population Normal (%)

Suppose we examine the molecule CC(C)NCC(O)COc1ccc(CCOCC2CC2)cc1.Cl (stereo not drawn) [BETAXOLOL HYDROCHLORIDE] ; what Population Normal (%) value has been reported?
83%

// query: `COc1ncc(-c2ccc3nccc(-c4ccnnc4)c3c2)cc1NS(=O)(=O)c1ccc(F)cc1F`
81%

Try the molecule `CCN(CC)CCCCNc1ncc2cc(-c3cc(OC)cc(OC)c3)c(NC(=O)NC(C)(C)C)nc2n1`
42%

###

tested on: HEK-293T; test: Multiplex assay against HEK293T; type: toxicity, cell-based; details: human, 24 h, 1 µM, compound concentration 1 uM, replicate 1
measurement name: Population Hoechst High Intensity Objects (%)

State its Population Hoechst High Intensity Objects (%) on HEK-293T: `O=C(NCCCC1CCCCC1)c1ccc(CNC(=O)c2cnn(-c3ccccc3)c2C(F)(F)F)cc1`
15% [middle of 4 runs]

Follow-up entry: `CN(C)CC#Cc1ccc(OCCCc2sc(N3CCc4cccc(C(=O)Nc5nc6ccccc6s5)c4C3)nc2C(=O)O)c(F)c1`
14%

Another compound: `Cc1nc(Nc2n[nH]c3c2CN(C(=O)N[C@H](CN(C)C)c2ccccc2)C3(C)C)c2sccc2n1`
9%

# iterate: `Cc1cc(C)cc(-c2cnc3cc(Cl)c(-c4cccc(O)c4)cc3c2OCCCN)c1`
12%

Same question, `CN1CCN(c2ccc(OC(F)(F)F)c(Nc3ncc4c(n3)-c3c(c(C(N)=O)nn3CCO)CC4)c2)CC1` this time
14%

What about this compound? `Cc1[nH]c(/C=C2\C(=O)Nc3ccc(S(=O)(=O)N(C)c4cccc(Cl)c4)cc32)c(C)c1C(=O)N1CCN(C)CC1`
18%

COc1cccc([C@@H](C)NCCCc2ccccc2Cl)c1.Cl [TECALCET HYDROCHLORIDE] ?
9%

Follow-up entry: `COc1ncc(-c2ccc3nccc(-c4ccnnc4)c3c2)cc1NS(=O)(=O)c1ccc(F)cc1F`
22%

Likewise for `C=CC(=O)Nc1cccc(C(=O)Nc2ccc(Nc3cc(-c4[nH]c(SC)nc4C)ccn3)cc2)c1` ?
17%

Would you kindly repeat that for `Cn1cc(-c2[nH]c3cc(NC(=O)[C@H](N)C4CCCCC4)cc4c3c2C=NNC4=O)cn1` ?
19%

###

system: HEK-293T; assay: Multiplex assay against HEK293T; assay type: toxicity, cell-based; settings: human, 12 h, 10 µM, compound concentration 10 uM, replicate 1
Provide the recorded Population Apoptotic (%) for the entries that follow.

Item under review: `Cn1cc(-c2[nH]c3cc(NC(=O)[C@H](N)C4CCCCC4)cc4c3c2C=NNC4=O)cn1` . Reported Population Apoptotic (%)?
64%

Try this compound next: O=C(NCCCC1CCCCC1)c1ccc(CNC(=O)c2cnn(-c3ccccc3)c2C(F)(F)F)cc1 [SR-321]
50% [middle of 4 runs]

What do you get for Cl.N#Cc1ccc2[nH]cc(CCCCN3CCN(c4ccc5oc(C(N)=O)cc5c4)CC3)c2c1 [VILAZODONE HYDROCHLORIDE] ?
93%

Now this one: CN(C)C(=O)N[C@H]1CC[C@H](CCN2CCN(c3cccc(Cl)c3Cl)CC2)CC1.Cl [CARIPRAZINE HYDROCHLORIDE]
85%

Another compound to check: CC[C@H](C)C(=O)O[C@H]1C[C@@H](C)C=C2C=C[C@H](C)[C@H](CC[C@@H]3C[C@@H](O)CC(=O)O3)[C@H]21 [LOVASTATIN]
47%

// next record `Cc1csc2c(N[C@@H](C)CN3CCN(S(=O)(=O)c4ccc(Cl)c(Cl)c4)CC3)ncnc12`
79%

Consider next the compound CN1CCCC(n2nc(Cc3ccc(Cl)cc3)c3ccccc3c2=O)CC1.Cl (stereo not drawn) [AZELASTINE HYDROCHLORIDE] in the same way.
82%

Same again, this time with CN1CCN(c2ccc(OC(F)(F)F)c(Nc3ncc4c(n3)-c3c(c(C(N)=O)nn3CCO)CC4)c2)CC1 [ONVANSERTIB]
67%

Now try `C=CC(=O)Nc1ccc2ncnc(Nc3ccc(OCc4cccc(F)c4)c(Cl)c3)c2c1.Cc1ccc(S(=O)(=O)O)cc1` .
51%

Next compound up: `COc1cc(-n2cnc3cc(-c4ccc(Cl)cc4)sc3c2=O)ccc1OCCN1CCCC1`
57%

Similarly, COc1ncc(-c2ccc3nccc(-c4ccnnc4)c3c2)cc1NS(=O)(=O)c1ccc(F)cc1F [OMIPALISIB] ?
62%

Item: O=C(NCCN1CCOCC1)c1ccc2c(c1)C(=O)c1ccc(Nc3ccc(F)c(NC(=O)c4ccccc4)c3)cc1CC2 [FS-694]
34%

One more compound: `C=CC(=O)Nc1cccc(C(=O)Nc2ccc(Nc3cc(-c4[nH]c(SC)nc4C)ccn3)cc2)c1`
48%

###

Please respond with reported Population Hoechst High Intensity Objects (%) for every item in the list.
test system: Fibroblast; assay: Multiplex assay against human fibroblast; assay type: toxicity, cell-based; settings: 12 h, 10 µM, compound concentration 10 uM, replicate 2
Number in %, nothing else.

Which measured Population Hoechst High Intensity Objects (%) value corresponds to CCN(CC)CCCCNc1ncc2cc(-c3cc(OC)cc(OC)c3)c(NC(=O)NC(C)(C)C)nc2n1 [PD-173074] ?
61

Also CC(C)NCC(O)COc1ccc(CCOCC2CC2)cc1.Cl (stereo not drawn) [BETAXOLOL HYDROCHLORIDE] , if possible.
7

Next entry: Cc1nc(Nc2n[nH]c3c2CN(C(=O)N[C@H](CN(C)C)c2ccccc2)C3(C)C)c2sccc2n1 [PF-03758309]
39

Input CN1CCCC(n2nc(Cc3ccc(Cl)cc3)c3ccccc3c2=O)CC1.Cl (stereo not drawn) [AZELASTINE HYDROCHLORIDE]
4

Moving on to Cl.N#Cc1ccc2[nH]cc(CCCCN3CCN(c4ccc5oc(C(N)=O)cc5c4)CC3)c2c1 [VILAZODONE HYDROCHLORIDE]
10

Another compound to check: `OC1(c2ccc(Cl)cc2)CCN(Cc2c[nH]c3ccccc23)CC1`
3

// repeat for C[C@@H](NCCCc1cccc(C(F)(F)F)c1)c1cccc2ccccc12.Cl [CINACALCET HYDROCHLORIDE] and report
7

Next compound: `COc1cc(-n2cnc3cc(-c4ccc(Cl)cc4)sc3c2=O)ccc1OCCN1CCCC1`
8

###

system: Fibroblast; assay: Multiplex assay against human fibroblast; type: toxicity, cell-based; settings: 48 h, 1 µM, compound concentration 1 uM, replicate 2
measurement name: Population Healthy Nuclei (%)
Express your answer in %, writing the number without its unit.

# get_value(readout= Population Healthy Nuclei (%), system= Fibroblast) for `CN1CCN(c2ccc(OC(F)(F)F)c(Nc3ncc4c(n3)-c3c(c(C(N)=O)nn3CCO)CC4)c2)CC1`
68

Field entry: COc1cccc([C@@H](C)NCCCc2ccccc2Cl)c1.Cl [TECALCET HYDROCHLORIDE]
70

Another compound to look at: CN(C)C(=O)N[C@H]1CC[C@H](CCN2CCN(c3cccc(Cl)c3Cl)CC2)CC1.Cl [CARIPRAZINE HYDROCHLORIDE]
69

Please answer likewise for `CN(C)C(=O)/C(C#N)=C/c1ccc(-c2nc3cnc4[nH]ccc4c3n2C2CCCCC2)o1`
72

###

tested on: Fibroblast; test: Multiplex assay against human fibroblast; type: toxicity, cell-based; details: 12 h, 1 µM, compound concentration 1 uM, replicate 1
measurement name: Population Fragmented Nuclei (%)
Quick reminder: number only, in %, skip the unit.

Which Population Fragmented Nuclei (%) is reported for this compound? `CC[C@H](C)C(=O)O[C@H]1C[C@@H](C)C=C2C=C[C@H](C)[C@H](CC[C@@H]3C[C@@H](O)CC(=O)O3)[C@H]21`
33

Repeat with `Cn1cc(-c2[nH]c3cc(NC(=O)[C@H](N)C4CCCCC4)cc4c3c2C=NNC4=O)cn1`
27

Next record, please: `CC(C)(O)CNc1ncc(-c2ccnc(Nc3ccnc(Cl)c3)n2)c(CC2CC2)n1`
27

Now this one: `COc1cc(-n2cnc3cc(-c4ccc(Cl)cc4)sc3c2=O)ccc1OCCN1CCCC1`
32

# repeat for CN(C)C(=O)N[C@H]1CC[C@H](CCN2CCN(c3cccc(Cl)c3Cl)CC2)CC1.Cl [CARIPRAZINE HYDROCHLORIDE]
15

Entry to check: C=CC(=O)Nc1cc2c(Nc3ccc(F)c(Cl)c3)ncnc2cc1OCCCN1CCOCC1.Cl.Cl [CANERTINIB DIHYDROCHLORIDE]
35

Next compound: `CN(C)C(=O)/C(C#N)=C/c1ccc(-c2nc3cnc4[nH]ccc4c3n2C2CCCCC2)o1`
27

Ok, now Cl.N#Cc1ccc2[nH]cc(CCCCN3CCN(c4ccc5oc(C(N)=O)cc5c4)CC3)c2c1 [VILAZODONE HYDROCHLORIDE]
38

Also check O=C1NCN(c2ccccc2)C12CCN(CCCOc1ccc(F)cc1)CC2 [SPIRAMIDE]
40

And `Cc1cc(C)cc(-c2cnc3cc(Cl)c(-c4cccc(O)c4)cc3c2OCCCN)c1` ?
38

CN1CCCC(n2nc(Cc3ccc(Cl)cc3)c3ccccc3c2=O)CC1.Cl (configuration not stated) [AZELASTINE HYDROCHLORIDE] , same question.
25

`Cc1nc(Nc2n[nH]c3c2CN(C(=O)N[C@H](CN(C)C)c2ccccc2)C3(C)C)c2sccc2n1` , same question.
33
